// melting point lookup, one value per entry
property label: melting point

C[C@@]12c3ccccc3C[C@@H](c3ccccc31)[N@@+]2(C)CC#N 147 to 149 °C
Cc1ccccc1C[N@+]1(C)[C@H]2Cc3ccccc3[C@]1(C)c1ccccc12 101 to 103 °C
C[C@@]12c3ccccc3C[C@@H](c3ccccc31)[N@@+]2(C)CC1CCCC1 125 to 127 °C
C=CC[N@@+]1(CC2CC2)[C@@H]2Cc3ccccc3[C@@]1(C)c1ccccc12 131 to 132 °C
C[C@@]12c3ccccc3C[C@@H](c3ccccc31)[N@@+]2(C)CC1CCCCC1 220 to 222 °C

* * *

# Tested on: NMDAR
# method summary: NMDAR blocking activity using patch-clamp (whole-cell voltage clamp recordings from rat hippocampal neurons)
# Assay type: cell-based
# condition label: currents evoked by 100 μM NMDA and 20 μM D-serine, clamped at −60 mV
// IC50 lookup, one value per entry
property label: IC50 (nM)

CC(C)C[N@+]1(C)[C@H]2Cc3ccccc3[C@]1(C)c1ccccc12 820
C[C@@]12c3ccccc3C[C@@H](c3ccccc31)[N@@+]2(C)CC1CC1 400
C[C@@]12c3ccccc3C[C@@H](c3ccccc31)[N@@+]2(C)CC1CCCC1 1100
CC[N@+]1(C)[C@H]2Cc3ccccc3[C@]1(C)c1ccccc12 570
CCCC[N@+]1(C)[C@H]2Cc3ccccc3[C@]1(C)c1ccccc12 500

* * *

property label: melting point

CC[N@@+]1(CC2CC2)[C@H]2Cc3ccccc3[C@]1(C)c1ccccc12 189 to 191 °C
C[C@@]12c3ccccc3C[C@@H](c3ccccc31)[N@@+]2(C)CC1CCC1 159 to 162 °C
C[C@@]12c3ccccc3C[C@@H](c3ccccc31)[N+]2(C)C 270 to 280 °C
CC[N@@+]1(CCCCO)[C@@H]2Cc3ccccc3[C@@]1(C)c1ccccc12 201 to 202 °C
C[C@@]12c3ccccc3C[C@@H](c3ccccc31)[N@@+]2(C)Cc1ccc(Cl)cc1 160 to 162 °C
C[C@@]12c3ccccc3C[C@@H](c3ccccc31)[N@@+]2(C)Cc1ccccc1 220 to 222 °C
C#CC[N@@+]1(CCO)[C@@H]2Cc3ccccc3[C@@]1(C)c1ccccc12 201 to 202 °C
CC(C)C[N@+]1(C)[C@H]2Cc3ccccc3[C@]1(C)c1ccccc12 216 to 217 °C
C[C@@]12c3ccccc3C[C@@H](c3ccccc31)[N@@+]2(C)Cc1cccc(C(F)(F)F)c1 167 to 170 °C
CC(C)(C)c1ccc(C[N@+]2(C)[C@H]3Cc4ccccc4[C@]2(C)c2ccccc23)cc1 152 to 154 °C
CCCCCC[N@+]1(C)[C@H]2Cc3ccccc3[C@]1(C)c1ccccc12 200 to 203 °C
CC(=O)NCC[N@+]1(C)[C@H]2Cc3ccccc3[C@]1(C)c1ccccc12 216 to 218 °C

* * *

// melting point lookup, one value per entry

molecule	melting point
C[C@@]12c3ccccc3C[C@@H](c3ccccc31)[N@@+]2(C)CC(N)=O	189 to 192 °C
C[C@]12c3ccccc3C[C@H](c3ccccc31)[N@@+]2(CCO)CC1CC1	179 to 180 °C
CCC[N@@+]1(CCO)[C@@H]2Cc3ccccc3[C@@]1(C)c1ccccc12	221 to 222 °C
CCCC[N@@+]1(CCO)[C@@H]2Cc3ccccc3[C@@]1(C)c1ccccc12	196 to 197 °C
CC(C)CC[N@+]1(C)[C@H]2Cc3ccccc3[C@]1(C)c1ccccc12	215 to 217 °C
COCC[N@+]1(C)[C@@H]2Cc3ccccc3[C@@]1(C)c1ccccc12	162 to 163 °C
CC[N+]1(CC)[C@@H]2Cc3ccccc3[C@@]1(C)c1ccccc12	218 to 219 °C
CCCC[N@+]1(C)[C@H]2Cc3ccccc3[C@]1(C)c1ccccc12 [Compound No 3]	200 to 203 °C
CC[N@@+]1(CCO)[C@H]2Cc3ccccc3[C@]1(C)c1ccccc12 [Compound No 32]	115 to 120 °C
C=CC[N@@+]1(CCO)[C@@H]2Cc3ccccc3[C@@]1(C)c1ccccc12	196 to 197 °C
